# TEST SYSTEM: ERα (Homo sapiens)
# Sequence (P03372 whole entry): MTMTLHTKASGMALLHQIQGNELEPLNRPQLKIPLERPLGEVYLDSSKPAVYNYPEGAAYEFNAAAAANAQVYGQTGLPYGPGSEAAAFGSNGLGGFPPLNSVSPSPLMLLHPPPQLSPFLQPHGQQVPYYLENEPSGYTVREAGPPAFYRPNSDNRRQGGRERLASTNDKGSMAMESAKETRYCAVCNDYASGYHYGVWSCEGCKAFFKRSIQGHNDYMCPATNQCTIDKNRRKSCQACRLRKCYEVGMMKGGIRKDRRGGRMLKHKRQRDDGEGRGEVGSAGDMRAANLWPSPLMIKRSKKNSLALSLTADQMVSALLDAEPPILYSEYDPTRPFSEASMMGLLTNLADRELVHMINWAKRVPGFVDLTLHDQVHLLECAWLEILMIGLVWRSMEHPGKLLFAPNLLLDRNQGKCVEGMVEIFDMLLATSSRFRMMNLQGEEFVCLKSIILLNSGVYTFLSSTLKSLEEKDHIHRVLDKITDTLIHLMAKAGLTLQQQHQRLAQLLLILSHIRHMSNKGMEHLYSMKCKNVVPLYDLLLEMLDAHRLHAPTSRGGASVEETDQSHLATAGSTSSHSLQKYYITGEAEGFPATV
# EXPERIMENTAL PROTOCOL: Estrogen receptor degradation activity: breast cancer cell ERα in cell western assay (MCF7 cells)
# TEST SETTINGS: 4 hours post compound addition, concentration which degrades 50% of the estrogen receptor
# Protocol: Test: Estrogen Receptor Degradation Activity Said test involves measuring the in vitro degradation activity of the compounds of the Table 1a. The measurements of the degradation activities were made using a breast cancer cell ERα in cell western assay as described hereunder. […] Integrated intensities in the green fluorescence and red fluorescence were measured to determine the levels of ERα and DNA respectively. […]
QUANTITY: pIC50
Give bare numbers, as −log10 of the molar value.

{"COMPOUND": "O=C(O)c1ccc2c(c1)CCCC(CC1CCC1)=C2c1ccc(CC2CN(CCCF)C2)cc1 [Example 294]", "QUANTITY": "pIC50", "READOUT NUMBER": 9.70}

Give pIC50 for each listed item.
1. Cc1c(Cl)cccc1C1=C(c2ccc(CC3CN(CCCF)C3)cc2)c2ccc(C(=O)O)cc2CCC1.Cl [Example 212, hydrochloride]
2. O=C(O)c1ccc2c(c1)CCCC(c1cccc(Cl)c1C(F)(F)F)=C2c1ccc(CC2CN(CCCF)C2)cc1 [Example 226]
3. Cl.O=C(O)c1ccc2c(c1)CCCC(c1ccc(Cl)c(F)c1Cl)=C2c1ccc(CC2CN(CCCF)C2)cc1 [Example 211, hydrochloride]
4. O=C(O)c1ccc2c(c1)CCCC(c1cccc(F)c1C(F)(F)F)=C2c1ccc(CC2CN(CCC(F)F)C2)cc1 [Example 278]
5. O=C(O)c1ccc2c(c1)CCCC(c1cccc(F)c1C(F)(F)F)=C2c1ccc(CC2CN(CCCF)C2)cc1 [Example 232]

Reply:
1: 10.00; 2: 10.00; 3: 10.00; 4: 9.70; 5: 10.00

* * *

# TEST SYSTEM: ERα (Homo sapiens)
# Construct: host or cells: MCF7
# EXPERIMENTAL PROTOCOL: Estrogen receptor degradation activity: breast cancer cell ERα in cell western assay (MCF7 cells)
# Assay type: cell-based
# TEST SETTINGS: 0.3 μM, 4 hours, relative to fulvestrant 0.1 μM positive control
Kindly state % Degradation At 0.3 μM for each of the entries shown.
Express the reported value numerically, then name its unit.

As a guide, the following entries are already answered.
{"MOLECULE": "O=C(O)c1ccc2c(c1)CCCC(c1cccc(F)c1C(F)(F)F)=C2c1ccc(CC2CN(CCC(F)F)C2)cc1 [Example 278]", "% Degradation At 0.3 μM": "84%"}
{"MOLECULE": "CC1CCc2cc(C(=O)O)ccc2C(c2ccc(CC3CN(CCCF)C3)cc2)=C1c1ccc(Cl)cc1Cl (single isomer, unassigned) [Example 302]", "% Degradation At 0.3 μM": "90%"}
{"MOLECULE": "CC1CCc2cc(C(=O)O)ccc2C(c2ccc(CC3CN(CCCF)C3)cc2)=C1c1ccc(Cl)cc1Cl (single isomer, unassigned) [Example 303]", "% Degradation At 0.3 μM": "90%"}
{"MOLECULE": "COc1cc(C2=C(c3ccc(CC4CN(CCCF)C4)cc3)c3ccc(C(=O)O)cc3CCC2)ccn1 [Example 21]", "% Degradation At 0.3 μM": "89%"}
{"MOLECULE": "COc1c(C(=O)O)ccc2c1CCCC(c1ccc(Cl)cc1Cl)=C2c1ccc(CC2CN(CCCF)C2)cc1 [Example 271]", "% Degradation At 0.3 μM": "83%"}
{"MOLECULE": "Cl.O=C(O)c1ccc2c(c1)CCCC(c1ccc(Cl)cc1Cl)=C2c1ccc(C2(C3CN(CCCF)C3)CC2)cc1 [Example 215]", "% Degradation At 0.3 μM": "67%"}

Report % Degradation At 0.3 μM for each item below.
1. Cl.O=C(O)c1ccc2c(c1)CCC(c1ccc(Cl)cc1Cl)=C2c1ccc(CC2CN(CCCF)C2)cc1 [Example 262]
2. O=C(O)c1ccc2c(c1)CCCC(c1cc(F)cc(F)c1)=C2c1ccc(CC2CN(CCCF)C2)cc1 [Example 266]
3. O=C(O)c1ccc2c(c1)CCCC(C1CC3CCC(C3)C1)=C2c1ccc(CC2CN(CCCF)C2)cc1 (stereo not shown) [Example 316]
4. Cc1ccc(C2=C(c3ccc(CC4CN(CCCF)C4)cc3)c3cc(F)c(O)c(F)c3CCC2)c(Cl)c1 [Example 265]
5. CC1CCc2cc(C(=O)O)ccc2C(c2ccc(CC3CN(CCCF)C3)cc2)=C1c1ccc(F)cc1C(F)(F)F (racemic) [Example 312]

Reply:
1. 91%
2. 90%
3. 81%
4. 83%
5. 91%

Give me % Degradation At 0.3 μM for each of these molecules, listed below.
1. Cc1ccc(C2=C(c3ccc(CC4CN(CCCF)C4)cc3)c3ccc(C(=O)O)cc3CCC2)c(Cl)c1.Cl [Example 7]
2. O=C(O)c1ccc2c(c1)CCCC(c1ccccc1F)=C2c1ccc(CC2CN(CCCF)C2)cc1 [Example 35]
3. O=C(O)c1ccc2c(c1)CCCC(c1c(F)cccc1Cl)=C2c1ccc(CC2CN(CCCF)C2)cc1 [Example 220]
4. N#Cc1c(C(=O)O)ccc2c1CCCC(c1ccc(Cl)cc1Cl)=C2c1ccc(CC2CN(CCCF)C2)cc1.O=CO [Example 246]
5. Cc1c(C(=O)O)ccc2c1CCCC(c1ccc(Cl)cc1Cl)=C2c1ccc(CC2CN(CCCF)C2)cc1.Cl [Example 250]
6. O=C(O)c1ccc2c(c1)CCCC(c1ccc(Cl)cc1Cl)=C2c1ccc(CC2CN(CCC(F)(F)F)C2)cc1 [Example 261]
7. O=C(O)c1ccc2c(c1)CCCC(c1cccc3c1CC3)=C2c1ccc(CC2CN(CCCF)C2)cc1 [Example 53]

Reply:
90%
91%
87%
73%
90%
89%
91%

Batch: % Degradation At 0.3 μM for all items listed.
1. O=C(O)c1ccc2c(c1)CCCC(c1ccccc1C(F)(F)F)=C2c1ccc(CC2CN(CCCF)C2)cc1 [Example 23]
2. Cc1c(C2=C(c3ccc(CC4CN(CCC(F)F)C4)cc3)c3ccc(C(=O)O)cc3CCC2)ccc(F)c1F [Example 275]
3. O=C(O)c1ccc2c(c1)CCCC(c1ccc(F)cc1C(F)(F)F)=C2c1ccc(CC2CN(CCC(F)(F)F)C2)cc1 [Example 258]
4. Cc1c(C2=C(c3ccc(CC4CN(CCC(F)(F)F)C4)cc3)c3ccc(C(=O)O)cc3CCC2)cccc1C(F)(F)F [Example 256]
5. Cl.O=C(O)c1ccc2c(c1)CCCC(c1ccccc1)=C2c1ccc(CC2CN(CCCF)C2)cc1 [Example 1]

Reply:
1: 91%; 2: 89%; 3: 87%; 4: 82%; 5: 83%

Look at each molecule and report its % Degradation At 0.3 μM.
1. O=C(O)c1ccc2c(c1)CCCC(c1ccc(Cl)cc1Cl)=C2c1ccc(CC2CN(CCCF)C2)cc1 [Example 2]
2. CCOC(c1ccc(C2=C(c3ccc(Cl)cc3Cl)CCCc3cc(C(=O)O)ccc32)cc1)C1CN(CCCF)C1 (single isomer, unassigned; isomer 1) [Example 229]
3. O=C(O)c1ccc2c(c1)SCC(c1ccc(Cl)cc1Cl)=C2c1ccc(CC2CN(CCCF)C2)cc1 [Example 308]
4. Cc1cc(C2=C(c3ccc(Cl)cc3Cl)CCCc3cc(C(=O)O)ccc32)ccc1CC1CN(CCCF)C1.Cl [Example 48]
5. Cl.O=C(O)c1ccc2c(c1)CCCC(c1ccc(Cl)c(F)c1Cl)=C2c1ccc(CC2CN(CCCF)C2)cc1 [Example 211]

Reply:
1: 91%; 2: 77%; 3: 94%; 4: 86%; 5: 96%
